- tested.target: yeast 26S proteasome (RPN11-3XFLAG) (yeast, UniProt P43588 1-306)
- protocol: ELISA; competition: 8 nM apoMb on immobilised 26S proteasome with peptides 100 µM to 0.01 µM; 100 nM MG132 in all incubations; Ki from a one site binding fit
- particulars: both partners purified
No end group written: not given here. *: point of attachment. Biotin = O=C1N[C@H]2[C@H](CS[C@H]2CCCCC(=O)*)N1
readout.kind: pKi
Give bare numbers, as −log10 of the molar value.

Inquiry: Retrieve pKi measured for Biotin-EWQLVLHVWAKVEAD [A-helix peptide of myoglobin] and print it.
Reply text: 6.10
